From: PubChem BioAssay AID192

Below, each entry is listed alongside its reported T/C.
# Tested on: BDF1 mice, B16 melanoma ip, median survival T/C
# Assay procedure: NCI In Vivo Anticancer Drug Screen. Data for tumor model B16 Melanoma (intraperitoneal) in B6D2F1 (BDF1) mice
# Condition set: endpoint: median survival time; dose: 20.0 mg/kg/injection; schedule: Q01DX009 (ip); vehicle: saline; higher = longer survival
Inconclusive results and toxic doses are left out.

{"Compound": "Nc1nc(=S)c2ncn(C3CC(O)C(CO)O3)c2[nH]1 (stereo not given)", "T/C": "100 % of control"}
{"Compound": "O=c1[nH]c(=O)n(C2CC(O)C(CO)O2)cc1C(F)(F)F (stereo not given)", "T/C": "105 % of control"}
{"Compound": "COc1cc(Cc2nccc3cc(OC)c(OC)cc23)c(C(C)=O)c(OC)c1", "T/C": "107 % of control"}
{"Compound": "C/C=C1/C[C@@H](C)[C@@](C)(O)C(=O)OCC2=CC[N+]3([O-])CC[C@@H](OC1=O)[C@@H]23 (stereo not given in full)", "T/C": "106 % of control"}
{"Compound": "O=CN(O)CC(=O)O.[Zn]", "T/C": "88 % of control"}

###

# Tested on: BDF1 mice, B16 melanoma ip, median survival T/C
# Assay procedure: NCI In Vivo Anticancer Drug Screen. Data for tumor model B16 Melanoma (intraperitoneal) in B6D2F1 (BDF1) mice
# Condition set: endpoint: median survival time; dose: 200.0 mg/kg/injection; schedule: Q01DX009 (ip); vehicle: Klucel (hydroxypropylcellulose) (HPC); higher = longer survival
Inconclusive results and toxic doses are left out. Peptide text beside a SMILES is read from it.

{"Compound": "Nc1n[nH]c(C(=O)O)n1", "T/C": "97 % of control"}
{"Compound": "O=NN(CCCl)C(=O)Nc1c[nH]c2ccccc12", "T/C": "174 % of control"}
{"Compound": "CC(=O)CC(=O)N1CCC(C)CC1", "T/C": "112 % of control"}
{"Compound": "O=Cc1ccc(C=O)c(Cl)c1", "T/C": "107 % of control"}
{"Compound": "CCCCCCCNC(=O)Nc1cccc(Cl)c1C", "T/C": "95 % of control"}
{"Compound": "N#Cc1ccc(/C=C/C(=O)c2ccccc2)cc1", "T/C": "101 % of control"}
{"Compound": "O=C(CC(CC(=O)c1ccccc1)c1ccco1)c1ccccc1", "T/C": "93 % of control"}
{"Compound": "CC(=O)N/C(=C/c1ccccc1)C(=O)O", "T/C": "108 % of control"}
{"Compound": "O=c1oc2ccccc2c(O)c1C(c1ccc(C(c2c(O)c3ccccc3oc2=O)c2c(O)c3ccccc3oc2=O)cc1)c1c(O)c2ccccc2oc1=O", "T/C": "93 % of control"}
{"Compound": "CC1=CCC(C(C)C)C=C1 (centres undefined)", "T/C": "89 % of control"}
{"Compound": "Oc1ccc(/C=N\\Nc2ccccn2)c(O)c1", "T/C": "124 % of control"}
{"Compound": "CCCCC(CC)C(O)C(C)C(C)O (centres undefined)", "T/C": "87 % of control"}
{"Compound": "O=S(=O)(OCC(F)(F)F)c1ccccc1", "T/C": "97 % of control"}
{"Compound": "COC(=O)CCNCc1ccccc1", "T/C": "96 % of control"}
{"Compound": "O=C1CC(c2ccc(O)cc2)CC(=O)C1C(C1CC=CCC1)N(CCCl)CCCl (centres undefined)", "T/C": "92 % of control"}
{"Compound": "O=C1NC(=S)S/C1=C\\c1ccc(Cl)c(Cl)c1", "T/C": "97 % of control"}
{"Compound": "COc1cc2c(cc1OC)/C(=C\\C(=O)N1CCCC1=O)CCC2", "T/C": "100 % of control"}
{"Compound": "CC(C)CC(N)C(=O)NCC(=O)NC(Cc1ccccc1)C(=O)O (stereo not drawn) (H-Leu-Gly-Phe-OH; configuration not given here)", "T/C": "91 % of control"}
{"Compound": "O=C1N(Cl)C(=O)C(c2ccc(Cl)cc2)(c2ccc(Cl)cc2)N1Cl", "T/C": "117 % of control"}
{"Compound": "CCCC(=O)c1ccc(OC)c(OC)c1", "T/C": "96 % of control"}
{"Compound": "Cc1ccc(NCC2(/N=C/c3ccccc3)OC(CO)C(O)C2O)cc1 (centres undefined)", "T/C": "104 % of control"}
{"Compound": "C[C@H]1C[C@@H]2[C@H]([C@@H](O)C[C@@]3(C)[C@H]2CC[C@]3(O)C(=O)CO)[C@@]2(C)C=CC(=O)C=C12", "T/C": "112 % of control"}
{"Compound": "COc1cc2c(cc1OC)C(CCc1ccc(Cl)cc1)N(C)CC2 (centres undefined)", "T/C": "93 % of control"}
{"Compound": "COc1ccc(CSC(=S)NNc2ccccc2)cc1", "T/C": "103 % of control"}

###

# T/C per entry
# System: BDF1 mice, B16 melanoma ip, median survival T/C
# Assay procedure: NCI In Vivo Anticancer Drug Screen. Data for tumor model B16 Melanoma (intraperitoneal) in B6D2F1 (BDF1) mice
# Condition set: endpoint: median survival time; dose: 1.56 mg/kg/injection; schedule: Q01DX009 (ip); vehicle: Klucel (hydroxypropylcellulose) (HPC); higher = longer survival
Toxic doses and inconclusive results are not listed.
Parameter measured: T/C

{"Compound": "COC(=O)Nc1cn2cc(C(=O)c3cccs3)ccc2n1", "Measured result": "93 % of control"}
{"Compound": "OC(CCN1CCCCC1)(c1ccccc1)C1CC2C=CC1C2 (stereo not given)", "Measured result": "100 % of control"}
{"Compound": "CCC(=O)NC1=C(N2CC2C)C(=O)C(NC(=O)CC)=C(N2CC2C)C1=O (stereo not given)", "Measured result": "111 % of control"}
{"Compound": "CS(=O)(=O)ON1C(=O)c2ccccc2C1=O", "Measured result": "100 % of control"}
{"Compound": "CC(=O)C1=CC(=O)NC(=O)C1C(=O)CC(C)C (stereo not given)", "Measured result": "104 % of control"}

###

# System: BDF1 mice, B16 melanoma ip, median survival T/C
# Assay procedure: NCI In Vivo Anticancer Drug Screen. Data for tumor model B16 Melanoma (intraperitoneal) in B6D2F1 (BDF1) mice
# Condition set: endpoint: median survival time; dose: 400.0 mg/kg/injection; schedule: Q01DX009 (ip); vehicle: Klucel (hydroxypropylcellulose) (HPC); higher = longer survival
Toxic doses and inconclusive results are not listed.
Parameter measured: T/C

{"Compound": "O=C1N(Cl)C(=O)C(c2ccc(Cl)cc2)(c2ccc(Cl)cc2)N1Cl", "Parameter measured": "T/C", "Measured result": "118 % of control"}
{"Compound": "COc1ccc2ccccc2c1C1NC(=O)c2ccccc2N1 (stereo not given)", "Parameter measured": "T/C", "Measured result": "115 % of control"}
{"Compound": "O=C(Cc1ccc2cc3c(cc2c1)OCO3)NCCc1ccc2c(c1)OCO2", "Parameter measured": "T/C", "Measured result": "91 % of control"}
{"Compound": "Cc1ccc(S(=O)(=O)N2CCC(O)(c3ccccc3)CC2)cc1", "Parameter measured": "T/C", "Measured result": "119 % of control"}
{"Compound": "Cc1ccc(Cl)cc1NC(=O)c1ccc(Cl)cc1", "Parameter measured": "T/C", "Measured result": "116 % of control"}
{"Compound": "COc1ccc(NC(=O)Oc2cc(C)cc(C)c2)cc1", "Parameter measured": "T/C", "Measured result": "89 % of control"}
{"Compound": "COC(=O)CNc1ccc(S(=O)(=O)c2ccc(N)cc2)cc1", "Parameter measured": "T/C", "Measured result": "120 % of control"}
{"Compound": "O=Cc1ccc(C=O)c(Cl)c1", "Parameter measured": "T/C", "Measured result": "104 % of control"}
{"Compound": "COc1cccc(CNc2cccc(Cl)c2Cl)c1OC", "Parameter measured": "T/C", "Measured result": "102 % of control"}
{"Compound": "CCOc1ccccc1NC(=O)Nc1ccc(Cl)cc1", "Parameter measured": "T/C", "Measured result": "100 % of control"}
{"Compound": "Cc1cc(C)cc(OCC2CNC(=O)O2)c1 (stereo not given)", "Parameter measured": "T/C", "Measured result": "100 % of control"}
{"Compound": "COc1ccc(COC(=O)CN2C(=O)c3ccccc3C2=O)cc1", "Parameter measured": "T/C", "Measured result": "100 % of control"}
{"Compound": "Cc1ccc(N2CSC(=S)N(c3ccc(C)cc3)C2)cc1", "Parameter measured": "T/C", "Measured result": "102 % of control"}
{"Compound": "Cc1cccc(NC(=O)c2ccccc2C(=O)O)c1C", "Parameter measured": "T/C", "Measured result": "97 % of control"}
{"Compound": "Cc1ccc(NCC2(/N=C/c3ccccc3)OC(CO)C(O)C2O)cc1 (stereo not given)", "Parameter measured": "T/C", "Measured result": "109 % of control"}
{"Compound": "O=C(NNCc1ccccc1)C(O)C(O)C(O)CO (stereo not given)", "Parameter measured": "T/C", "Measured result": "95 % of control"}
{"Compound": "CC(OC(C)c1ccccc1)c1ccccc1 (stereo not given)", "Parameter measured": "T/C", "Measured result": "103 % of control"}
{"Compound": "Cc1ccc(NC(=O)c2cccc(C(=O)Nc3ccc(C)c(Cl)c3)c2)cc1Cl", "Parameter measured": "T/C", "Measured result": "97 % of control"}
{"Compound": "CN(C)S(=O)(=O)Nc1cc(Cl)c(NS(=O)(=O)N(C)C)cc1Cl", "Parameter measured": "T/C", "Measured result": "89 % of control"}
{"Compound": "S=C(SSSSC(=S)N1CCCCC1)N1CCCCC1", "Parameter measured": "T/C", "Measured result": "107 % of control"}
